assayed system: Muscarinic acetylcholine receptor
Type: cell membranes, Membrane
Description: Inhibition of [3H]quinuclidinyl benzilate (QNB) binding from rat forebrain membranes in the absence of Zn
measured parameter: IC50

Some solved entries appear below for comparison.
O=C(O)/C=C/C(=O)O.c1cnn(Nc2ccncc2)c1
> 1000 µM
CCCN(c1cc(Cl)ncn1)n1ccc2ccccc21
> 1000 µM
CCCN(c1[nH]cnc2ncnc1-2)n1ccc2ccccc21
> 300 µM

// switching to the query compound
Exam item: Given the compound `CCCN(c1ccnc2cc(Cl)ccc12)n1ccc2ccccc21.O=C(O)/C=C/C(=O)O` , write its reported IC50.
Marked response: > 300 µM

----------
assayed system: Sodium-dependent noradrenaline transporter (Homo sapiens, UniProt P23975)
Sequence (P23975 whole entry): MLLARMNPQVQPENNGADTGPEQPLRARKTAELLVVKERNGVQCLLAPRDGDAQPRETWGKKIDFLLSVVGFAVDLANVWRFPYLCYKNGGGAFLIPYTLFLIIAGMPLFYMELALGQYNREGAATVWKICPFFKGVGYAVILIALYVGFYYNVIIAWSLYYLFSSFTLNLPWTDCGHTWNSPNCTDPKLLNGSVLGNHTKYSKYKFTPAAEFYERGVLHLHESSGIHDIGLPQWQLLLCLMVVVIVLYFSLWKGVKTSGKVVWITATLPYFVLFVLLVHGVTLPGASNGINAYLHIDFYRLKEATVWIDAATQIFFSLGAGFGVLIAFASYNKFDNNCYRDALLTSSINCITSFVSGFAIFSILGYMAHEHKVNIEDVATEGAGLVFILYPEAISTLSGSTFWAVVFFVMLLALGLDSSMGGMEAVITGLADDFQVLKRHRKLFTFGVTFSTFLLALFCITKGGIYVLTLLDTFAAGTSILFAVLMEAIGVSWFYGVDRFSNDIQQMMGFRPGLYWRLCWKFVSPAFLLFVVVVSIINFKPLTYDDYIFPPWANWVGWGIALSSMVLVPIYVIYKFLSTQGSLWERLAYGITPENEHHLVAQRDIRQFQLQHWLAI
measured parameter: pIC50
Lab note — pIC50 values are minus log10 of concentrations in M.

CN(c1ccncc1)n1ccc2ccccc21
6.00

Exam item: Retrieve pIC50 measured for `CCCN(c1ccncc1)n1cc(C#N)c2ccccc21` and print it.
Marked response: 6.12

Exam item: For the compound CCCC(c1ccncc1)n1ccc2ccccc21 (stereo not drawn) , give its reported pIC50.
Marked response: 6.17

Exam item: Return pIC50 for the following compound: `CCCN(c1ccncc1)n1cc2ccccc2n1`
Marked response: 5.33
